measurementTarget: rat B1R (bradykinin receptor 1) (Rattus norvegicus, UniProt P97583)
Construct: expressed in transfected cells; host or cells: CHO K1 cells
testProtocol: FLIPR Ca2+ assay (Fluo-4) on CHO K1 cells stably transfected with the B1R gene of the rat (rB1R cells): % inhibition at 10 μM / IC50, agonist Des-Arg9-bradykinin
Format: cell-based
runParameters: CHO-K1, rat B1R
resultType: inhibition at 10 µM (%)

{"columns": ["compound", "resultType", "quantitativeReadout"],
 "data": [
  ["CN(C(=O)c1ccccc1Cl)C1CCc2ccc(C(=O)N3CCC4(CCN(Cc5ccccc5C#N)CC4)C3)cc21 (stereo not shown) [IND_CC-505]", "inhibition at 10 µM", 67]
]}

A: CC1(C)Cc2ccc(C(=O)N3CCC4(CC3)CCN(c3ccncc3)CC4)cc2C1NC(=O)c1cc(Cl)ccc1C(F)(F)F (stereo not shown) [IND_CC-314]
B: CN(C(=O)c1ccccc1Cl)C1CCc2ccc(C(=O)N3CCC4(CC3)CCN(c3ccc(F)cc3)CC4)cc21 (stereo not shown) [Ind_CC-108]
Which of the two items, A and B , has the greater recorded inhibition at 10 µM? Please reply using the label of the selected record.
A
(A: 80%, B: 51%)

P: CN(C(=O)Cc1ccccc1Cl)C1CCc2ccc(C(=O)N3CCC4(CC3)CCN(c3ccncc3)CC4)cc21 (stereo not shown) [Ind_CC-019]
Q: COc1ccc(CN2CCC3(CC2)CCN(C(=O)c2ccc4c(c2)C(N2Cc5c(c6c(Cl)cccc6n5C)C2=O)CC4)C3)cc1F (stereo not shown) [IND_CC-794]
Which of the two items, P and Q , has the greater recorded inhibition at 10 µM? Lab note: record the label of whichever item you select.
P
(P: 95%, Q: 59%)

a: O=C(c1ccc2c(c1)[C@H](NS(=O)(=O)c1ccccc1Cl)CC2)N1CCC2(CCN(c3ccncc3)CC2)C1 [Example H-105]
b: O=C(NC1CCc2ccc(C(=O)N3CCC4(CCN(Cc5c(F)cccc5Cl)CC4)CC3)cc21)c1cccc(Cl)c1Cl (stereo not shown) [IND_CC-727]
Of a and b , whose reported inhibition at 10 µM is numerically smaller? Indicate your choice by writing its label.
b

* * *

measurementTarget: rat B1R (bradykinin receptor 1) (Rattus norvegicus, UniProt P97583)
Construct: expressed in transfected cells; host or cells: CHO K1 cells
testProtocol: FLIPR Ca2+ assay (Fluo-4) on CHO K1 cells stably transfected with the B1R gene of the rat (rB1R cells): % inhibition at 10 μM / IC50, agonist Des-Arg9-bradykinin
Format: cell-based
runParameters: CHO-K1, rat B1R
Excerpt: The agonistic or antagonistic action of substances can be quantified on the bradykinin receptor 1 (B1R) of the human and rat species with ectopically expressing cell lines (CHO K1 cells) and with the aid of a Ca^2+-sensitive dyestuff (Fluo-4) in a fluorescent imaging plate reader (FLIPR). […] The agonistic or antagonistic action of substances can be determined on the bradykinin receptor 1 (B1R) of the human and rat species with the following assay. […]
resultType: inhibition at 10 µM (%)

Reference set (5 entries):
{"columns": ["compound", "resultType", "unitString", "quantitativeReadout"],
 "data": [
  ["Cc1c(CN2CCC3(CC2)CCN(C(=O)c2ccc4c(c2)C(NC(=O)c2ccccc2Cl)CC4)C3)cnn1C (stereo not shown)", "inhibition at 10 µM", "%", 56],
  ["CN(C1CCc2ccc(C(=O)N3CCC4(CC3)CCN(c3ccncc3)CC4)cc21)S(=O)(=O)Cc1cccc(Cl)c1 (stereo not shown)", "inhibition at 10 µM", "%", 99],
  ["O=C(c1ccc2c(c1)C(NS(=O)(=O)c1ccccc1Cl)CC2)N1CCC2(CC1)CCN(c1ccncc1)CC2 (stereo not shown)", "inhibition at 10 µM", "%", 100],
  ["CN(C)c1ncc(CN2CCC3(CC2)CCN(C(=O)c2ccc4c(c2)C(NC(=O)c2cc(Cl)ccc2F)CC4)CC3)cn1 (stereo not shown)", "inhibition at 10 µM", "%", 74],
  ["O=C(Cc1ccccc1F)N[C@@H]1CCc2ccc(C(=O)N3CCC4(CCN(c5ccncc5)CC4)C3)cc21", "inhibition at 10 µM", "%", 101]
]}

1: COc1cc(C)c(C(=O)NC2CCc3ccc(C(=O)N4CCC5(CCN(Cc6ccncc6)CC5)CC4)cc32)c(C)c1 (stereo not shown)
2: O=C(c1cccc2c1CC[C@@H]2N1Cc2cccc(Cl)c2C1=O)N1CCC2(CCN(c3ccncc3)CC2)C1
// select label with min value of measured inhibition at 10 µM from [ 1 , 2 ] Choose, then provide that item's label.
2

* * *

measurementTarget: rat B1R (bradykinin receptor 1) (Rattus norvegicus)
Construct: expressed in transfected cells; host or cells: CHO K1 cells
testProtocol: FLIPR Ca2+ assay (Fluo-4) on CHO K1 cells stably transfected with the B1R gene of the rat (rB1R cells): % inhibition at 10 μM / IC50, agonist Des-Arg9-bradykinin
Type: cell-based
runParameters: CHO-K1, rat B1R
resultType: inhibition at 10 µM (%)

{"columns": ["molecule", "unitString", "inhibition at 10 µM"],
 "data": [
  ["O=C(c1ccc2c(c1)C(NS(=O)(=O)Cc1ccccc1F)CC2)N1CCC2(CC1)CCN(c1ccncc1)C2 (stereo not shown) [IND_CC-350]", "%", 106]
]}

1: O=C(NC1CCc2ccc(C(=O)N3CCC4(CCN(Cc5ccc(F)c(F)c5)CC4)CC3)cc21)c1ccccc1Cl (stereo not shown) [IND_CC-514]
2: Cn1cncc1CN1CCC2(CC1)CCN(C(=O)c1ccc3c(c1)C(NC(=O)c1c(F)cccc1Cl)CC3)CC2 (stereo not shown) [IND_CC-796]
Hi! Which is lower in terms of inhibition at 10 µM, the first one 1 or the second one 2 ? Write down the label of the entry you select.
2
(2: 66%, 1: 102%)

A: O=C(NC1CCc2ccc(C(=O)N3CCC4(CCN(Cc5cc(F)ccc5F)CC4)C3)cc21)c1ccccc1Cl (stereo not shown) [IND_CC-543]
B: O=C(NC1CCc2ccc(C(=O)N3CCC4(CCC(N5CC(F)(F)C5)CC4)CC3)cc21)c1ccccc1Cl (stereo not shown) [Example H-07]
Compare inhibition at 10 µM: is it lower for A or for B ? Reply with the label of the item you choose.
B
(B: 69%, A: 102%)

A: O=C(NC1CCc2ccc(C(=O)N3CCC4(CC3)CCN(c3ccncc3)CC4)cc21)c1ccccn1 (stereo not shown) [Ind_CC-002]
B: O=C(NC1CCc2ccc(C(=O)N3CCC4(CCC(O)(c5ccncc5)CC4)C3)cc21)c1ccccc1Cl (stereo not shown) [Example H-128]
C: Cc1nc[nH]c1CN1CCC2(CC1)CCN(C(=O)c1ccc3c(c1)C(NC(=O)c1cc(C(F)(F)F)ccc1Cl)CC3)C2 (stereo not shown) [IND_CC-655]
Order the entries by their reported inhibition at 10 µM, beginning at the minimum. Give the order by naming the labels one after another as requested.
B, C, A

* * *

measurementTarget: rat B1R (bradykinin receptor 1) (Rattus norvegicus)
Construct: expressed in transfected cells; host or cells: CHO K1 cells
testProtocol: FLIPR Ca2+ assay (Fluo-4) on CHO K1 cells stably transfected with the B1R gene of the rat (rB1R cells): % inhibition at 10 μM / IC50, agonist Des-Arg9-bradykinin
Type: cell-based
runParameters: CHO-K1, rat B1R
resultType: inhibition at 10 µM (%)

a: O=C(N[C@@H]1CCc2ccc(C(=O)N3CCC4(CCN(c5ccncc5)CC4)C3)cc21)c1c(F)cccc1C(F)(F)F [Example H-110]
b: CC(C)CN1CCC2(CC1)CCN(C(=O)c1ccc3c(c1)C(NC(=O)c1cc(Cl)ccc1F)CC3)CC2 (centres unmarked) [IND_CC-680]
Lab note: check whether a or b has the lower measured inhibition at 10 µM. Give the label of your selection.
b

* * *

measurementTarget: rat B1R (bradykinin receptor 1) (Rattus norvegicus)
Construct: expressed in transfected cells; host or cells: CHO K1 cells
Sequence (P97583 1-337): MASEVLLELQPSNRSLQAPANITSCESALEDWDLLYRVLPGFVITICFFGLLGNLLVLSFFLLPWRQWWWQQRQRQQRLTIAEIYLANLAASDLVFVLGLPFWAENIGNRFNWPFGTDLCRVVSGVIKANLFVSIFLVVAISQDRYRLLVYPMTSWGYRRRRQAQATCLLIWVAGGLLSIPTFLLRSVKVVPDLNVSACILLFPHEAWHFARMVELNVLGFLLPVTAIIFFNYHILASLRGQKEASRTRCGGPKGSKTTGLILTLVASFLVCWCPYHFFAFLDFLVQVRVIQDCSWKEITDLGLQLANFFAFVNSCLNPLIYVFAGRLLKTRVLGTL
testProtocol: FLIPR Ca2+ assay (Fluo-4) on CHO K1 cells stably transfected with the B1R gene of the rat (rB1R cells): % inhibition at 10 μM / IC50, agonist Des-Arg9-bradykinin
Assay type: cell-based
runParameters: CHO-K1, rat B1R
resultType: inhibition at 10 µM (%)

{"columns": ["molecule", "inhibition at 10 µM (%)"],
 "data": [
  ["O=C(NC1CCc2ccc(C(=O)N3CCC4(CCN(Cc5ccc(F)c(F)c5)CC4)CC3)cc21)c1c(F)cccc1Cl (stereo not shown)", 98],
  ["O=C(NC1CCc2ccc(C(=O)N3CCC4(CC3)CCN(c3ccncc3)C4)cc21)C1CCCC1 (stereo not shown)", 103],
  ["O=C(N[C@@H]1CCOc2cc(C(F)(F)F)c(C(=O)N3CCC4(CCN(c5ccncc5)CC4)C3)cc21)c1ccccc1Cl", 108],
  ["O=C(NC1CCc2ccc(C(=O)N3CCC4(CC3)CCN(c3ccncc3)CC4)cc21)C1CC1 (stereo not shown)", 87],
  ["O=C(NC1CCc2ccc(C(=O)N3CCC4(CCN(Cc5csnn5)CC4)CC3)cc21)c1c(F)cccc1Cl (stereo not shown)", 91],
  ["O=C(N[C@@H]1CCCc2ccc(C(=O)N3CCC4(CCCN(c5ccncc5)C4)CC3)cc21)c1ccccc1Cl", 105],
  ["O=C(N[C@@H]1CCc2ccc(C(=O)N3CCC4(CCN(c5ccncc5)CC4)C3)cc21)c1ccccc1Cl", 105]
]}
